# Tested on: MC38-hPDL1 cells
# protocolSummary: In vitro cytotoxicity on MC38-hPDL1 cells (CellTiter-Glo)
# Format: cell-based, mouse
# settings: 72 hours
Exercise: for every item that follows, state its recorded MC38-hPDL1 inhibition rate (%).
Numbers only, in %.

samplesmiles=COc1nc(-c2cccc(-c3cccc(NC(=O)c4nc5c(n4C)CCN(C)C5)c3Cl)c2Cl)ncc1CN1CC2(C1)CN(C(C)=O)C2 property="MC38-hPDL1 inhibition rate (%)" recordedresult=0
samplesmiles=COc1nc(-c2cccc(-c3cccc(NC(=O)c4nc5c(n4C)CCN(C)C5)c3Cl)c2Cl)cnc1CN1CC2(C1)CN(C(C)=O)C2 property="MC38-hPDL1 inhibition rate (%)" recordedresult=15
samplesmiles=COc1nc(-c2cccc(-c3cccc(NC(=O)c4nc5c(n4C)CCN(C)C5)c3Cl)c2Cl)ccc1CN1CC(CO)C1 property="MC38-hPDL1 inhibition rate (%)" recordedresult=51
samplesmiles=COc1nc(-c2cccc(-c3cccc(NC(=O)c4nc5c(n4C)CCN(C)C5)c3Cl)c2Cl)ccc1CN1CC(C(=O)N(C)C)C1 property="MC38-hPDL1 inhibition rate (%)" recordedresult=14

Now for the compound whose MC38-hPDL1 inhibition rate (%) we want.
IN: Give the measured MC38-hPDL1 inhibition rate (%) of COc1nc(-c2cccc(-c3cccc(NC(=O)c4nc5c(n4C)CCN(C)C5)c3Cl)c2Cl)ncc1CN1CC(CNC(C)=O)C1 .
OUT: 1
